B1: 3'-5' exoribonuclease 1, residues 65 to 114; numbered along this chain, Q8IV48 (parent)
chain: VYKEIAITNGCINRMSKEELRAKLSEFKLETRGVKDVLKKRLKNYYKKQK

- Variants of: B1
- test-summary: abundance fitness (aPCA) (normalised: wild type 0, dead -1); higher = more abundant; growth selection in yeast, the domain comes from the species named
- experimental-conditions: Homo sapiens
endpoint: abundance fitness

The cases that follow already have their abundance fitness on record.
>>> result("VYKEIAITNGCINRMSKEELRAKLSEFKLETRGVKDVLKKALKNYYKKQK [R41A]")
-0.891
>>> result("VYKEIAITNGCINRMSKEELRAKLSEFKLETRGVKDVLKKTLKNYYKKQK [R41T]")
-0.963
>>> result("VYKEIAITNGCINMMSKEELRAKLSEFKLETRGVKDVLKKRLKNYYKKQK [R14M]")
-0.298

Consider the variant VYKSIAITNGCINRMSKEELRAKLSEFKLETRGVKDVLKKRLKNYYKKQK [E4S] and give its measured abundance fitness.
-0.077

Ok, now VYKEIAITNGCINRMSKEELRAKLSWFKLETRGVKDVLKKRLKNYYKKQK [E26W]
-0.406
